Target: Serotonin 5HT7 receptors (Homo sapiens (Human), UniProt P34969)
Assay: Radiolabel Binding Studies for Serotonin 5HT7 receptors
Conditions: membranes of cells expressing recombinant 5HT7 receptors
measurement kind: IC50
In your response, the unit should come after the numeric value.

Example entries begin here.
{"columns": ["compound", "reading"],
 "data": [
  ["CCC1(CC)CC(CCN2CCN(c3ccc4nc(C)[nH]c4c3)CC2)OC1=O (stereo not shown)", "10000 nM"],
  ["Nc1cc(N2CCN(CCC3CC4(CCCCC4)C(=O)O3)CC2)ccc1[N+](=O)[O-] (stereo not shown)", "500 nM"],
  ["COc1ccccc1N1CCN(CCC2CC3(CCC3)C(=O)O2)CC1 (stereo not shown)", "319 nM"]
]}

Give recorded IC50 with Serotonin 5HT7 receptors (Homo sapiens (Human), UniProt P34969) for the following compound: COc1ccc(N2CCN(CC[C@H]3CC(C)(C)C(=O)O3)CC2)cc1
10000 nM

Another compound to check: CCC1(CC)CC(CCN2CCN(c3ccc4nc(C(F)(F)F)[nH]c4c3)CC2)OC1=O (stereo not shown)
10000 nM
